# System: PC-3 [JPC-3]
# assay.details: relative viability (nuclei count vs DMSO), 5 days (fraction); higher = more cells survive
# conditions: first compound 0.3162 µM
Measured relative viability accompanies every entry in the list below.
When you answer, write just the number.

Recorded relative viability, per entry:
IN: Fill in the blank: the reported relative viability of CCN(CC)CCCCNc1ncc2cc(-c3cc(OC)cc(OC)c3)c(NC(=O)NC(C)(C)C)nc2n1 + O=C(c1cc(Cc2n[nH]c(=O)c3ccccc23)ccc1F)N1CCN(C(=O)C2CC2)CC1 [Olaparib] (partner 8 µM) is ____.
OUT: 1.19

IN: Further, for CCN(CC)CCCCNc1ncc2cc(-c3cc(OC)cc(OC)c3)c(NC(=O)NC(C)(C)C)nc2n1 + O=C(CCCCCCC(=O)Nc1ccccc1)NO [Vorinostat] (partner 1 µM) ?
OUT: 1.18

Now consider the entry below.
IN: What value of relative viability has been reported for the following compound? O=c1cc(N2CCOCC2)oc2c(-c3cccc4c3sc3ccccc34)cccc12 + NC(=O)Nc1cc(-c2cccc(F)c2)sc1C(=O)N[C@H]1CCCNC1 [AZD7762] (partner 0.2 µM)
OUT: 0.954

* * *

Quick reference for relative viability among some compounds
# Test system: IA-LM
# assay.details: relative viability (nuclei count vs DMSO), 5 days (fraction); higher = more cells survive
# conditions: first compound 0.01 µM
Respond numerically, and do not add a unit to the figure.

Field: example entries. Status: answers known.
IN: Given O=c1cc(N2CCOCC2)oc2c(-c3cccc4c3sc3ccccc34)cccc12 + C[C@]1(O)C[C@@H](c2nc(-c3ccc4ccc(-c5ccccc5)nc4c3)c3c(N)nccn32)C1 [Linsitinib] (partner 1 µM) , state its recorded relative viability.
OUT: 0.667

IN: Now give it for CCN(CC)CCCCNc1ncc2cc(-c3cc(OC)cc(OC)c3)c(NC(=O)NC(C)(C)C)nc2n1 + Cc1nc(NC(=O)N2CCC[C@H]2C(N)=O)sc1-c1ccnc(C(C)(C)C(F)(F)F)c1 [Alpelisib] (partner 2 µM) too.
OUT: 0.62

IN: Same thing, different compound: CCN(CC)CCCCNc1ncc2cc(-c3cc(OC)cc(OC)c3)c(NC(=O)NC(C)(C)C)nc2n1 + C[C@@H](Oc1cc(-c2cnn(C3CCNCC3)c2)cnc1N)c1c(Cl)ccc(F)c1Cl [Crizotinib] (partner 1 µM)
OUT: 0.766

***
IN: I would be grateful if you could share the reported relative viability for CCN(CC)CCCCNc1ncc2cc(-c3cc(OC)cc(OC)c3)c(NC(=O)NC(C)(C)C)nc2n1 + CS(=O)(=O)CCNCc1ccc(-c2ccc3ncnc(Nc4ccc(OCc5cccc(F)c5)c(Cl)c4)c3c2)o1 [Lapatinib] (partner 2 µM) .
OUT: 0.805

* * *

# Tested on: RERF-LC-KJ
# assay.details: relative viability (nuclei count vs DMSO), 5 days (fraction); higher = more cells survive
# conditions: first compound 0.8 µM
measured.parameter: relative viability
Reply: number alone, nothing else.

Observe how each entry below is paired with its result.
IN: Could you share which relative viability value was measured for O=c1cc(-c2cccc3c2Sc2ccccc2S3)oc(N2CCOCC2)c1 + C[C@@H](Oc1cc(-c2cnn(C3CCNCC3)c2)cnc1N)c1c(Cl)ccc(F)c1Cl [Crizotinib] (partner 1 µM) ?
OUT: 0.871

IN: Follow-up entry: COc1nc(C)cnc1NS(=O)(=O)c1cccnc1-c1ccc(-c2nnco2)cc1 [Zibotentan] + CS(=O)(=O)CCNCc1ccc(-c2ccc3ncnc(Nc4ccc(OCc5cccc(F)c5)c(Cl)c4)c3c2)o1 [Lapatinib] (partner 2 µM)
OUT: 0.878

***
IN: // relative viability lookup, key: COc1nc(C)cnc1NS(=O)(=O)c1cccnc1-c1ccc(-c2nnco2)cc1 [Zibotentan] + COc1cc2c(Oc3ccc(NC(=O)C4(C(=O)Nc5ccc(F)cc5)CC4)cc3F)ccnc2cc1OCCCN1CCOCC1 [Foretinib] (partner 0.25 µM)
OUT: 0.809

IN: Try this compound next: O=c1cc(-c2cccc3c2Sc2ccccc2S3)oc(N2CCOCC2)c1 + N=C(N)NC(=N)NCCc1ccccc1 [Phenformin] (partner 250 µM)
OUT: 0.465

IN: O=c1cc(-c2cccc3c2Sc2ccccc2S3)oc(N2CCOCC2)c1 + Cc1nc(Nc2ncc(C(=O)Nc3c(C)cccc3Cl)s2)cc(N2CCN(CCO)CC2)n1 [Dasatinib] (partner 0.075 µM) , same question.
OUT: 0.918

IN: Now the compound COc1nc(C)cnc1NS(=O)(=O)c1cccnc1-c1ccc(-c2nnco2)cc1 [Zibotentan] + NC(=O)Nc1cc(-c2cccc(F)c2)sc1C(=O)N[C@H]1CCCNC1 [AZD7762] (partner 0.2 µM)
OUT: 0.841

* * *

# System: NCI-H2126
# assay.details: relative viability (nuclei count vs DMSO), 5 days (fraction); higher = more cells survive
# conditions: first compound 0.8 µM
1 if relative viability is below 0.9. 0 if not; exact matches included in 0.

IN: Identify whether the compound O=c1cc(-c2cccc3c2Sc2ccccc2S3)oc(N2CCOCC2)c1 + C[C@@H](Oc1cc(-c2cnn(C3CCNCC3)c2)cnc1N)c1c(Cl)ccc(F)c1Cl [Crizotinib] (partner 1 µM) records relative viability below 0.9.
OUT: 0

IN: What do you have for O=c1cc(-c2cccc3c2Sc2ccccc2S3)oc(N2CCOCC2)c1 + COc1cccc2cc(-c3nc([C@H]4CC[C@H](C(=O)O)CC4)n4ncnc(N)c34)[nH]c12 [OSI-027] (partner 0.5 µM) ?
OUT: 1

IN: Field entry: O=c1cc(-c2cccc3c2Sc2ccccc2S3)oc(N2CCOCC2)c1 + CC(C)C[C@H](NC(=O)[C@H](Cc1ccccc1)NC(=O)c1cnccn1)B(O)O [Bortezomib] (partner 0.002 µM)
OUT: 0

Now let's try a different one.
IN: Check if relative viability falls below 0.9 for O=c1cc(-c2cccc3c2Sc2ccccc2S3)oc(N2CCOCC2)c1 + N=C(N)NC(=N)NCCc1ccccc1 [Phenformin] (partner 250 µM) .
OUT: 1

* * *

# System: NCI-H322M
# assay.details: relative viability (nuclei count vs DMSO), 5 days (fraction); higher = more cells survive
# conditions: first compound 2.53 µM
measured.parameter: relative viability

IN: Return reported relative viability; argument: COc1nc(C)cnc1NS(=O)(=O)c1cccnc1-c1ccc(-c2nnco2)cc1 [Zibotentan] + CCNC(=O)c1noc(-c2cc(C(C)C)c(O)cc2O)c1-c1ccc(CN2CCOCC2)cc1 [Luminespib] (partner 0.01 µM)
OUT: 0.918

***
IN: Sample COc1nc(C)cnc1NS(=O)(=O)c1cccnc1-c1ccc(-c2nnco2)cc1 [Zibotentan] + C[C@]1(O)C[C@@H](c2nc(-c3ccc4ccc(-c5ccccc5)nc4c3)c3c(N)nccn32)C1 [Linsitinib] (partner 1 µM) — what was its relative viability?
OUT: 0.843

IN: Input O=c1cc(-c2cccc3c2Sc2ccccc2S3)oc(N2CCOCC2)c1 + CC(C)C[C@H](NC(=O)[C@H](Cc1ccccc1)NC(=O)c1cnccn1)B(O)O [Bortezomib] (partner 0.002 µM)
OUT: 1.04

IN: Follow-up item: COc1nc(C)cnc1NS(=O)(=O)c1cccnc1-c1ccc(-c2nnco2)cc1 [Zibotentan] + Nc1nc2[nH]cc(CCc3ccc(C(=O)N[C@@H](CCC(=O)O)C(=O)O)cc3)c2c(=O)[nH]1 [Pemetrexed] (partner 0.2 µM)
OUT: 0.65

* * *

# Tested on: LCLC-97TM1
# assay.details: relative viability (nuclei count vs DMSO), 5 days (fraction); higher = more cells survive
# conditions: first compound 2 µM
Listed here: items and their measured relative viability.
Answer field: number only, no words.

IN: Need relative viability, item COCC1(CO)C(=O)C2CCN1CC2 (stereo not drawn) [PRIMA-1MET] + Cc1nc(Nc2ncc(C(=O)Nc3c(C)cccc3Cl)s2)cc(N2CCN(CCO)CC2)n1 [Dasatinib] (partner 0.075 µM)
OUT: 0.815

***
IN: Query (compound): COCC1(CO)C(=O)C2CCN1CC2 (stereo not drawn) [PRIMA-1MET] + N=C(N)NC(=N)NCCc1ccccc1 [Phenformin] (partner 250 µM) ; field requested: relative viability
OUT: 0.484

IN: Also COCC1(CO)C(=O)C2CCN1CC2 (stereo not drawn) [PRIMA-1MET] + O=C(CCCCCCC(=O)Nc1ccccc1)NO [Vorinostat] (partner 1 µM) ?
OUT: 0.747

* * *

# System: LOU-NH91
# assay.details: relative viability (nuclei count vs DMSO), 5 days (fraction); higher = more cells survive
# conditions: first compound 0.3162 µM
measured.parameter: relative viability
Could you keep your reply to the number by itself?

IN: Kindly state the measured relative viability obtained for O=c1cc(N2CCOCC2)oc2c(-c3cccc4c3sc3ccccc34)cccc12 + Cc1nc(Nc2ncc(C(=O)Nc3c(C)cccc3Cl)s2)cc(N2CCN(CCO)CC2)n1 [Dasatinib] (partner 0.075 µM) with LOU-NH91.
OUT: 0.584

IN: Moving on to O=c1cc(N2CCOCC2)oc2c(-c3cccc4c3sc3ccccc34)cccc12 + Cc1cc(Nc2cc(N3CCN(C)CC3)nc(Sc3ccc(NC(=O)C4CC4)cc3)n2)n[nH]1 [Tozasertib] (partner 0.1 µM)
OUT: 0.697

IN: How about CCN(CC)CCCCNc1ncc2cc(-c3cc(OC)cc(OC)c3)c(NC(=O)NC(C)(C)C)nc2n1 + CC(C)C[C@H](NC(=O)[C@H](Cc1ccccc1)NC(=O)c1cnccn1)B(O)O [Bortezomib] (partner 0.002 µM) ?
OUT: 0.515

IN: Now consider O=c1cc(N2CCOCC2)oc2c(-c3cccc4c3sc3ccccc34)cccc12 + Nc1ncn([C@H]2C[C@H](O)[C@@H](CO)O2)c(=O)n1 [Decitabine] (partner 2 µM) and answer again.
OUT: 0.827

IN: Same again, this time with CCN(CC)CCCCNc1ncc2cc(-c3cc(OC)cc(OC)c3)c(NC(=O)NC(C)(C)C)nc2n1 + CC(=O)Nc1cccc(-n2c(=O)n(C3CC3)c(=O)c3c(Nc4ccc(I)cc4F)n(C)c(=O)c(C)c32)c1 [Trametinib] (partner 0.02 µM)
OUT: 0.844

IN: Same question for CCN(CC)CCCCNc1ncc2cc(-c3cc(OC)cc(OC)c3)c(NC(=O)NC(C)(C)C)nc2n1 + Cc1cc(Nc2cc(N3CCN(C)CC3)nc(Sc3ccc(NC(=O)C4CC4)cc3)n2)n[nH]1 [Tozasertib] (partner 0.1 µM) please.
OUT: 0.677

New cases:
IN: Return relative viability measured with LOU-NH91 given this molecule: O=c1cc(N2CCOCC2)oc2c(-c3cccc4c3sc3ccccc34)cccc12 + Cc1nc(NC(=O)N2CCC[C@H]2C(N)=O)sc1-c1ccnc(C(C)(C)C(F)(F)F)c1 [Alpelisib] (partner 2 µM)
OUT: 0.759

IN: What about this molecule? O=c1cc(N2CCOCC2)oc2c(-c3cccc4c3sc3ccccc34)cccc12 + C[C@]1(O)C[C@@H](c2nc(-c3ccc4ccc(-c5ccccc5)nc4c3)c3c(N)nccn32)C1 [Linsitinib] (partner 1 µM)
OUT: 1.03
